# Test system: 883617-216-R-J1-PDC tumor spheroids, viability;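 also: spheroids exposed to agents for 7 days before the viability read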
# test-name: Anticancer human tumor 883617-216-R-J1-PDC patient-derived bladder carcinoma cell line growth inhibition [PI3K]
# condition-notes: second compound 10 µM; first compound 0.00316 µM; hits give low values; spheroids with HUVEC and MSC
Flag rule - viability, T/C less than 40% flags t; the remaining entries get f.

Look over these answered cases.
**Query** In plain terms, does CC(=O)c1c(C)c2cnc(Nc3ccc(N4CCNCC4)cn3)nc2n(C2CCCC2)c1=O + CC(Nc1ncnc2nc[nH]c12)c1cc2cccc(Cl)c2c(=O)n1-c1ccccc1 come in under 40% for viability, T/C?
**Result** f

**Query** Say whether its viability, T/C is strictly beneath 40%. Entry: CC(C)n1nc(-c2ccc3oc(N)nc3c2)c2c(N)ncnc21 + CC(Nc1ncnc2nc[nH]c12)c1cc2cccc(Cl)c2c(=O)n1-c1ccccc1
**Result** f

**Query** Determine if CC(=O)c1c(C)c2cnc(Nc3ccc(N4CCNCC4)cn3)nc2n(C2CCCC2)c1=O + Cc1nc(NC(=O)N2CCCC2C(N)=O)sc1-c1ccnc(C(C)(C)C(F)(F)F)c1 shows viability, T/C strictly lower than 40%.
**Result** t

Others:
**Query** Determine if Cn1ncnc1[C@H]1c2n[nH]c(=O)c3cc(F)cc(c23)N[C@@H]1c1ccc(F)cc1 + CC(Nc1ncnc2nc[nH]c12)c1cc2cccc(Cl)c2c(=O)n1-c1ccccc1 shows viability, T/C strictly lower than 40%.
**Result** f

**Query** Lab log: compare recorded viability, T/C with 40%; is it strictly lower for CCN1CCN(Cc2ccc(Nc3ncc(F)c(-c4cc(F)c5nc(C)n(C(C)C)c5c4)n3)nc2)CC1 + Cc1nc(NC(=O)N2CCCC2C(N)=O)sc1-c1ccnc(C(C)(C)C(F)(F)F)c1 ?
**Result** t
